# assay: Ferric reducing/antioxidant power (FRAP assay)
# Assay type: biochemical
# condition: means ± standard deviation; absorbance at 593 nm
Documented FRAP across a set of compounds
Could you give me the number in mmolFe^2+/mmolC? Just the number is fine.

Reference set (8 entries):
compound	recorded number
COc1ccc(C(=O)Nc2nc3ccc([N+](=O)[O-])cc3[nH]2)c(OC)c1	139.6
COc1ccccc1C(=O)Nc1nc2ccc([N+](=O)[O-])cc2s1	6.7
COc1ccc(C(=O)Nc2nc3ccc(N)cc3[nH]2)c(OC)c1 [Compound 13]	238.4
COc1ccccc1C(=O)Nc1nc2ccc(N)cc2s1.Cl	214.3
COc1cc(C(=O)Nc2nc3ccc(N)cc3[nH]2)cc(OC)c1OC	1102.5
COc1cc(C(=O)Nc2nc3ccc([N+](=O)[O-])cc3[nH]2)cc(OC)c1OC	89.7
COc1ccccc1C(=O)Nc1nc2ccc([N+](=O)[O-])cc2[nH]1	123.5
O=C(Nc1nc2ccc([N+](=O)[O-])cc2s1)c1cc(O)c(O)c(O)c1	6139.2

Could you now look at the following compound, please?
Please give the measured FRAP for this compound: COc1ccc(C(=O)Nc2nc3ccc(N)cc3[nH]2)c(OC)c1 [Compound 19]
259.1

###

# System: MCF-7 (breast carcinoma)
# assay: Antiproliferative activity in vitro (MTT assay)
# Type: cell-based, human
# condition: Homo sapiens, MCF7, 72 h, 72 h incubation, concentration that causes 50% growth inhibition
assay endpoint: IC50 (µM)
Unit µM implied. Number only.

molecule	IC50 (µM)
O=C(Nc1nc2ccc([N+](=O)[O-])cc2[nH]1)c1ccccc1O [Compound 24]	42
COc1cc(C(=O)Nc2nc3ccc([N+](=O)[O-])cc3[nH]2)cc(OC)c1OC [Compound 8]	1
Nc1ccc2nc(NC(=O)c3ccccc3O)[nH]c2c1 [Compound 30]	30
COc1ccc(C(=O)Nc2nc3ccc([N+](=O)[O-])cc3s2)c(OC)c1 [Compound 10]	5
COc1ccc(C(=O)Nc2nc3ccc(N)cc3[nH]2)c(OC)c1 [Compound 13]	20

# returns recorded IC50 (system: MCF-7 (breast carcinoma)) for COc1ccccc1C(=O)Nc1nc2ccc([N+](=O)[O-])cc2[nH]1 [Compound 6]
4

# get_value(readout= IC50, system= MCF-7 (breast carcinoma)) for O=C(Nc1nc2ccc([N+](=O)[O-])cc2s1)c1ccccc1O [Compound 27]
2

Query IC50 on MCF-7 (breast carcinoma) for COc1ccccc1C(=O)Nc1nc2ccc([N+](=O)[O-])cc2s1 [Compound 9]
9

API: value(readout=IC50, system=MCF-7 (breast carcinoma)) for record COc1ccccc1C(=O)Nc1nc2ccc(N)cc2s1 [Compound 15]
3

Query the reported IC50 for MCF-7 (breast carcinoma); item: COc1c(O)cc(C(=O)Nc2nc3ccc([N+](=O)[O-])cc3[nH]2)cc1O [Compound 26]
3

Observed IC50 on MCF-7 (breast carcinoma) for COc1ccc(C(=O)Nc2nc3ccc(N)cc3s2)c(OC)c1 [Compound 16] , please.
5

Short answer please: IC50, MCF-7 (breast carcinoma), entry COc1cc(C(=O)Nc2nc3ccc(N)cc3[nH]2)cc(OC)c1OC [Compound 14]
43

###

FRAP by entry:
# assay: Ferric reducing/antioxidant power (FRAP assay)
# Assay type: biochemical
# condition: means ± standard deviation; absorbance at 593 nm
Just the number please, in mmolFe^2+/mmolC, no unit attached.

Record excerpt, results attached:
compound	measurement units	recorded number
COc1ccccc1C(=O)Nc1nc2ccc(N)cc2[nH]1 [Compound 12]	mmolFe^2+/mmolC	256.3
COc1ccc(C(=O)Nc2nc3ccc(N)cc3[nH]2)c(O)c1 [Compound 31]	mmolFe^2+/mmolC	258.4
COc1ccc(C(=O)Nc2nc3ccc(N)cc3[nH]2)c(O)c1 [Compound 32]	mmolFe^2+/mmolC	304.3
COc1ccc(C(=O)Nc2nc3ccc([N+](=O)[O-])cc3[nH]2)c(O)c1	mmolFe^2+/mmolC	150.4

// moving on: another record for FRAP
Which FRAP reading was recorded for the compound COc1ccc(C(=O)Nc2nc3ccc(N)cc3s2)c(OC)c1.Cl ?
244.2

###

# Tested on: MCF-7 (breast carcinoma)
# assay: Antiproliferative activity in vitro (MTT assay)
# Format: cell-based, human
# condition: Homo sapiens, MCF7, 72 h, 72 h incubation, concentration that causes 50% growth inhibition
Each entry below carries its recorded IC50.

Completed entries (count: 5):
compound	system tested	IC50
COc1ccc(C(=O)Nc2nc3ccc([N+](=O)[O-])cc3[nH]2)c(O)c1 [Compound 25]	MCF-7 (breast carcinoma)	28 µM
COc1cc([C@@H]2c3cc4c(cc3[C@@H](O[C@@H]3O[C@@H]5CO[C@@H](C)O[C@H]5[C@H](O)[C@H]3O)[C@H]3COC(=O)[C@H]23)OCO4)cc(OC)c1O [Etoposide, reference compound]	MCF-7 (breast carcinoma)	1 µM
O=C(Nc1nc2ccc([N+](=O)[O-])cc2s1)c1cc(O)c(O)c(O)c1 [Compound 29]	MCF-7 (breast carcinoma)	4 µM
COc1cc(C(=O)Nc2nc3cc(N)ccc3[nH]2)cc(OC)c1OC.Cl [Compound 20]	MCF-7 (breast carcinoma)	34 µM
COc1ccc(C(=O)Nc2nc3ccc([N+](=O)[O-])cc3[nH]2)c(OC)c1 [Compound 7]	MCF-7 (breast carcinoma)	2 µM

Given the compound COc1cc(C(=O)Nc2nc3ccc([N+](=O)[O-])cc3s2)cc(OC)c1OC [Compound 11] , what is its reported IC50?
17 µM

IC50 for COc1ccc(C(=O)Nc2nc3ccc(N)cc3[nH]2)c(O)c1 [Compound 31] ?
≥ 100 µM

Looking for the measured IC50 of COc1ccc(C(=O)Nc2nc3ccc([N+](=O)[O-])cc3s2)c(O)c1 [Compound 28] , can you help?
10 µM

###

Below: a set of entries, each annotated with reported pIC50.
# System: HCT 116 (colon carcinoma)
# assay: Antiproliferative activity in vitro (MTT assay)
# Type: cell-based, human
# condition: Homo sapiens, HCT-116, 72 h, 72 h incubation, concentration that causes 50% growth inhibition, read-out: IC50 HCT116
pIC50 here is simply -log10 of the concentration when that concentration is written in mol/L.

smiles text	system tested	pIC50
COc1ccccc1C(=O)Nc1nc2ccc(N)cc2s1	HCT 116 (colon carcinoma)	5.22

Could you now consider this next compound?
Quick check: pIC50 on HCT 116 (colon carcinoma), item COc1cc(C(=O)Nc2nc3ccc(N)cc3s2)cc(OC)c1OC ?
4.55

###

Listed below: FRAP values for each entry.
# assay: Ferric reducing/antioxidant power (FRAP assay)
# Format: biochemical
# condition: means ± standard deviation; absorbance at 593 nm
Value expressed in mmolFe^2+/mmolC; do not type the unit.

Solved entries (count: 2):
smiles text	recorded number
COc1cc(C(=O)Nc2nc3ccc(N)cc3s2)cc(OC)c1OC	235.4
COc1ccc(C(=O)Nc2nc3ccc(N)cc3s2)c(OC)c1	203.6

Field: next molecule
Please look up its FRAP: COc1cc(C(=O)Nc2nc3ccc(N)cc3s2)cc(OC)c1OC.Cl
241.3

###

In this section we review reported IC50 values for a set of compounds.
# Tested on: HCT 116 (colon carcinoma)
# assay: Antiproliferative activity in vitro (MTT assay)
# Assay type: cell-based, human
# condition: Homo sapiens, HCT-116, 72 h, 72 h incubation, concentration that causes 50% growth inhibition, read-out: IC50 HCT116
Number only, in µM; omit the unit.

In the examples that follow, each entry is paired with its recorded IC50.
smiles text	system tested	IC50, µM
COc1ccc(C(=O)Nc2nc3ccc([N+](=O)[O-])cc3s2)c(O)c1	HCT 116 (colon carcinoma)	7
COc1c(O)cc(C(=O)Nc2nc3ccc([N+](=O)[O-])cc3[nH]2)cc1O	HCT 116 (colon carcinoma)	4
Nc1ccc2nc(NC(=O)c3ccccc3O)[nH]c2c1	HCT 116 (colon carcinoma)	46
COc1ccc(C(=O)Nc2nc3ccc([N+](=O)[O-])cc3[nH]2)c(O)c1	HCT 116 (colon carcinoma)	31
O=C(Nc1nc2ccc([N+](=O)[O-])cc2s1)c1ccccc1O	HCT 116 (colon carcinoma)	6
O=C(Nc1nc2ccc([N+](=O)[O-])cc2s1)c1cc(O)c(O)c(O)c1	HCT 116 (colon carcinoma)	7
O=C(Nc1nc2ccc([N+](=O)[O-])cc2[nH]1)c1ccccc1O	HCT 116 (colon carcinoma)	61

In the following, a different compound is considered.
Return reported IC50; argument: COc1cc(C(=O)Nc2nc3ccc(N)cc3[nH]2)cc(OC)c1OC
76

Source of measurements: paper PMC6826492
